method: cell viability in Huh7 cells, primary screen, cytotoxicity control for HCV replication inhibitor project, CellTiter-Glo luminescence, basal, 48 h (AID 1143);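 note: Huh7 hepatoma cells carrying a hepatitis C replication reporter with no stimulus; test concentration not given here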
assay.context: Huh7 HCV replicon, higher = more signal, called active from +8 up or from −8 down
Assign T to entries whose z-score meets or exceeds -2; assign F to the rest.

The following compounds have reported results that may help.
| compound | class.name |
| --- | --- |
| O=C1C2C=CC(C(O)c3ccc(F)cc3)N(n3cnnc3)C2C(=O)N1Cc1ccccc1 (stereo not given) | F |
| COc1cc(CO)cc(I)c1O[C@H]1C=C(C(=O)NCCO)C[C@@H](NCc2ccc(F)cc2)[C@@H]1O | T |
| [N-]=[N+]=Nc1ccccc1[C@@H]1OC(c2ccc(OCCCO)cc2)=N[C@]1(Cc1ccccc1)C(=O)NCC(O)CO (stereo not given in full) | F |
| C=CCC(OC(C)=O)[C@@H]1[C@@H](N(Cc2cc3ccccc3o2)C(=O)c2ccc(C)cc2)c2cc(OCCCO)ccc2N1C(=O)Cc1ccc(OC)cc1 (stereo not given in full) | T |
| C=CCN1C(=O)[C@@]2(CCS(=O)(=O)c3ccccc3)N=C(c3ccc(OCCCO)cc3)O[C@H]2c2ccccc21 | F |
| Cc1ccccc1C(O)C1C=CC2C(=O)N(C)C(=O)C2N1N(c1ccccc1)c1ccccc1 (stereo not given) | T |
| O=C1C[C@@](C(=O)NCCN2CCOCC2)(c2ccc([N+](=O)[O-])cc2)[C@@H](c2ccc(CO)cc2I)N1C1CCCCC1 | F |
| COC(=O)[C@@]1(Cc2ccc(F)cc2)[C@H]2c3cc(C(=O)N(C)C)n(CCc4ccc(O)c(OC)c4)c3C[C@H]2CN1C(=O)c1ccccc1 | T |

Determine whether measured z-score meets or exceeds -2 for CCOC(=O)c1ccc(NC(=O)O[C@H]2[C@H](OC(=O)Nc3ccc4c(c3)OCO4)[C@H](OC(=O)Nc3ccc4c(c3)OCO4)[C@@H](OC)O[C@@H]2CO)cc1
F

Do the same for O=C(NCC(F)(F)F)[C@@H]1c2ccccc2C(=O)N(Cc2ccccc2C(F)(F)F)[C@H]1c1ccc(CO)cc1 please
T

Do the same for C=CCC(OC(C)=O)[C@@H]1[C@@H](N(Cc2cc3ccccc3o2)C(=O)c2ccc(-c3ccccc3)cc2)c2cc(OCCCO)ccc2N1C(=O)c1ccc2ccccc2c1 (stereo not given in full) please
T

Do the same for CC(C)N1C(=O)c2ccccc2[C@@H](C(=O)NC2CC2)[C@@H]1c1ccc(CO)cc1 please
T

Cited source for all entries: PubChem BioAssay
